- protocol_description: in vitro
- condition_info: Sprague-Dawley, rat, microsomes
assay_endpoint: remaining at 10 min, 3 µM (%)
Record the value in %, omitting the unit from your answer.

Query: GET /values?readout=remaining at 10 min, 3 µM&item= Cn1cc(-c2cc(-c3cc(Cl)c(F)c(OCc4ccccc4Cl)c3)c(=O)n(-c3cccnc3)c2)c(=O)[nH]c1=O
Response: 26.6

* * *

- protocol_description: Oral dose escalation pharmacokinetics (10 and 100 mg/kg PO)
- Type: in vivo, rat
- condition_info: rat plasma, PO 100 mg/kg, mean ± SD, n = 3; read-out: Clast
- Procedure: To this end, 36 was studied in male Sprague–Dawley rats following a single intravenous dose at 0.25 mg/kg and an oral dose at 0.5 mg/kg (SI, Table S18). Table S19. Summary of Pharmacokinetic Parameters (nmol/mL) for Compound 36 in Rat Plasma after a Single Oral Dose of 36 at 10 mg/kg or 100 mg/kg Dose Tmax Cmax Tlast Clast AUCinf t1/2 (mg/kg) (h) (nmol/mL) (h) (nmol/mL) (h*nmol/mL) (h) Results are shown as averages and standard deviations (n = 3). Figure S18. […]
assay_endpoint: concentration at 24 h (nM)
Record the value in nM, omitting the unit from your answer.

Query: GET /values?readout=concentration at 24 h&item= O=c1[nH]cccc1-c1cn(-c2cc(Cl)cc(OCCC(F)(F)F)c2)c(=O)n(-c2cccnc2)c1=O
Response: 114

* * *

- protocol_description: in vitro
- condition_info: Sprague-Dawley, rat, microsomes
assay_endpoint: remaining at 5 min, 3 µM (%)
Record the value in %, omitting the unit from your answer.

Query: GET /values?readout=remaining at 5 min, 3 µM&item= Cn1cc(-c2cc(-c3cc(Cl)c(F)c(OCc4ccccc4Cl)c3)c(=O)n(-c3cccnc3)c2)c(=O)[nH]c1=O
Response: 63.6

* * *

Reported half-life at 3 µM values follow for various molecules
- protocol_description: Rat liver microsome stability assay
- condition_info: Sprague-Dawley, rat, microsomes, RLM t1/2, 3 μM, 37 °C; unit inferred
Record the value in min, omitting the unit from your answer.

smiles_str	assay_endpoint	reported
O=c1[nH]cccc1-c1cn(-c2cc(Cl)cc(OCc3ccccc3Cl)c2)c(=O)n(-c2cccnc2)c1=O	half-life at 3 µM	16.1

Attention now shifts to the item below.
Query: GET /values?readout=half-life at 3 µM&item= O=c1[nH]cccc1-c1cn(-c2cc(Cl)cc(OCc3ncsc3C(F)(F)F)c2)c(=O)n(-c2cccnc2)c1=O
Response: 18

* * *

- protocol_description: Pharmacokinetics after single IV and PO administration
- Format: in vivo, Male Sprague Dawley rats
- condition_info: male, Sprague-Dawley, rat; plasma, PO 0.5 mg/kg
assay_endpoint: Tmax (h)
Record the value in h, omitting the unit from your answer.

Query: GET /values?readout=Tmax&item= O=c1[nH]cccc1-c1cn(-c2cc(Cl)cc(OCCC(F)(F)F)c2)c(=O)n(-c2cccnc2)c1=O
Response: 1.67

* * *

- protocol_description: in vitro
- condition_info: CD-1, mouse, microsomes
assay_endpoint: remaining at 0.25 h, 3 µM (%)
Record the value in %, omitting the unit from your answer.

Query: GET /values?readout=remaining at 0.25 h, 3 µM&item= Cn1cc(-c2cc(-c3cc(Cl)c(F)c(OCc4ccccc4Cl)c3)c(=O)n(-c3cccnc3)c2)c(=O)[nH]c1=O [Compound 4]
Response: 2.96
